Molecular target: PPARγ (Homo sapiens)
Construct: Following the challenge of the preadipocytes, cells may be lysed with lysis buffer; endogenous in cells; host or cells: preadipocytes
Sequence (P37231 whole entry): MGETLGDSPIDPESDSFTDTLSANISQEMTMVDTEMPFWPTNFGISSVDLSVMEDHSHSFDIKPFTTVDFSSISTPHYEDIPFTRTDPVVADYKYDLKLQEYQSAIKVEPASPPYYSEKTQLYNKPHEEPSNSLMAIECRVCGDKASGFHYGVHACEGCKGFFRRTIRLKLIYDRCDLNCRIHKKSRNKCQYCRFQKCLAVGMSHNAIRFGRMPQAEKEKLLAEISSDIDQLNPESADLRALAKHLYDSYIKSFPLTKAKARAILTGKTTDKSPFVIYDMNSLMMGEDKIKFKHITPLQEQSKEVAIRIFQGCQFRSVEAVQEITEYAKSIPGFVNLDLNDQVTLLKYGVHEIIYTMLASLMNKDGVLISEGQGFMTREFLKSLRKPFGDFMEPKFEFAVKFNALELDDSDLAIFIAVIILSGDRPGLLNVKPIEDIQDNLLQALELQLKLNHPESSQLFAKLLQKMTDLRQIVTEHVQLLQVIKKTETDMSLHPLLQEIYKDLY
Test: aP2 assay for PPAR gamma agonists (bDNA aP2 mRNA in preadipocytes)
Assay type: cell-based
Conditions: unbracketed values; PPARγ standard FI = 70.3
READOUT_NAME: PPARγ FI (fold induction)

Known PPARγ FI (fold induction) results, listed for orientation:
INSERT INTO measurements (compound, readout_name, result) VALUES
  ('CC(C)CCN(C(=O)Nc1ccc(C(C)C)cc1)C1Cc2ccc(SC(C)(C)C(=O)O)cc2C1 (stereo not shown)', 'PPARγ FI (fold induction)', 0.05),
  ('CCCCCN(C(=O)Nc1ccc(N(C)C)cc1)C1Cc2ccc(SC(C)(C)C(=O)O)cc2C1 (stereo not shown)', 'PPARγ FI (fold induction)', 2.9),
  ('CCCCCCN(C(=O)Nc1ccc(OC(F)(F)F)cc1)C1Cc2ccc(SC(C)(C)C(=O)O)cc2C1 (stereo not shown)', 'PPARγ FI (fold induction)', 0.3);

Please indicate PPARγ FI (fold induction) recorded for CCCCCN(C(=O)Nc1ccc(OC(F)(F)F)cc1)C1Cc2ccc(SC(C)(C)C(=O)O)cc2C1 (stereo not shown)
1.9

====

Target: PPARγ (Homo sapiens)
Construct: Following the challenge of the preadipocytes, cells may be lysed with lysis buffer; endogenous in cells; host or cells: preadipocytes
Assay: aP2 assay for PPAR gamma agonists (bDNA aP2 mRNA in preadipocytes)
Format: cell-based
Details: unbracketed values; PPARγ standard FI = 70.3
Excerpt: The procedure is described in detail in Burris et al., Molecular Endocrinology, 1999, 13:410, which is hereby incorporated by reference in its entirety, and aP2 assay results of agonist intrinsic activity may be presented as fold increase over vehicle in induction of aP2 mRNA production. Twenty-four hours after the initial seeding of the 96-well plates by hand (around 20,000/well), the differentiation assay may be initiated. […]
Parameter PPARγ FI (fold induction): see the listing below.
Answer with a number only.

INSERT INTO results (compound, assay_target, recorded_number) VALUES
  ('CCCCCN(C(=O)Nc1ccc(-c2ccccc2)cc1)C1Cc2ccc(SC(C)(C)C(=O)O)cc2C1 (centres unmarked)', 'PPARγ (Homo sapiens)', 11),
  ('CCCCCCN(C(=O)Nc1ccc(C(C)C)cc1)C1Cc2ccc(SC(C)(C)C(=O)O)cc2C1 (centres unmarked)', 'PPARγ (Homo sapiens)', 1.2),
  ('CC(C)CCN(C(=O)Nc1ccc(OC(F)(F)F)cc1)C1Cc2ccc(SC(C)(C)C(=O)O)cc2C1 (centres unmarked)', 'PPARγ (Homo sapiens)', 0.44);

Output PPARγ FI (fold induction) of CC(C)(Sc1ccc2c(c1)CC(NC(=O)Nc1ccc(OC(F)(F)F)cc1)C2)C(=O)O (centres unmarked)
0.31

Give the reported value of PPARγ FI (fold induction) for this record: CCN(C(=O)Nc1ccc(C(C)C)cc1)C1Cc2ccc(SC(C)(C)C(=O)O)cc2C1 (centres unmarked)
1.9

Quick one: give measured PPARγ FI (fold induction) for CCCCCN(C(=O)Nc1ccc(SC(F)(F)F)cc1)C1Cc2ccc(SC(C)(C)C(=O)O)cc2C1 (centres unmarked)
4.0

Hello, please tell me recorded PPARγ FI (fold induction) for this one: CCN(C(=O)Nc1ccc(SC(F)(F)F)cc1)C1Cc2ccc(SC(C)(C)C(=O)O)cc2C1 (centres unmarked)
3.7

Consider the compound CCCCCN(C(=O)Nc1ccc(C(C)C)cc1)C1Cc2ccc(SC(C)(C)C(=O)O)cc2C1 (centres unmarked) . State its measured PPARγ FI (fold induction).
5.1
